Target: T1, recombinant human HER2 extracellular domain protein (human, UniProt P04626 23-652)
T1 construct: range 23-652; Range is printed for the immunogen/panning protein; also called ErbB2; recombinant HER2 protein
Assay: BLI, Protein A capture
Entries and their measured kon follow.
measurement.kind: kon (M⁻¹ s⁻¹)

Hu2117HK-Mu22 (Fc fusion, name in Kabat numbering, scFv-hIgG1 Fc; not shown: human IgG1 Fc) scFv: EVQLVESGGGLVQPGGSLRLSCAASGFTYSSYGMSWVRQAPGKGLEWVASISGGGSYTKYPDSVKGRFTISRDNSKNTLYLQMNSLRAEDTAVYYCARDYAGFFDVWGQGTLVTVSSGGGGSGGGGSGGGGSDIQMTQSPSSLSASVGDRVTITCRSSQSLVHSVGNTYLHWYQQKPGKAPKLLIYKVSNRFSGVPSRFSGSGSGTDFTLTISSLQPEDFATYFCSQSTHVPYTFGQGTKVEIK ... 43900
Hu2117HK-Mu27 (Fc fusion, scFv-hIgG1 Fc; not shown: human IgG1 Fc) scFv: EVQLVESGGGLVQPGGSLRLSCAASGFTYSSYGMSWVRQAPGKGLEWVASISGGGSYTKYPDSVKGRFTISRDNSKNTLYLQMNSLRAEDTAVYYCARDYAGFFDVWGQGTLVTVSSGGGGSGGGGSGGGGSDIQMTQSPSSLSASVGDRVTITCRSSQSLVHSNRNTYLHWYQQKPGKAPKLLIYKVSNRFSGVPSRFSGSGSGTDFTLTISSLQPEDFATYFCSQSTHVPYTFGQGTKVEIK ... 80200
Hu2117HK (Fc fusion, Hu2117-H1 + Hu2117-K1; also called hu2117-H1K1; humanized single-chain antibody Hu2117HK; not shown: human IgG1 Fc) scFv: EVQLVESGGGLVQPGGSLRLSCAASGFTYSSYGMSWVRQAPGKGLEWVASISGGGSYTKYPDSVKGRFTISRDNSKNTLYLQMNSLRAEDTAVYYCARDYAGFFDVWGQGTLVTVSSGGGGSGGGGSGGGGSDIQMTQSPSSLSASVGDRVTITCRSSQSLVHSNGNTYLHWYQQKPGKAPKLLIYKVSNRFSGVPSRFSGSGSGTDFTLTISSLQPEDFATYFCSQSTHVPYTFGQGTKVEIK ... 91700
Hu2117HK-Mu06 (Fc fusion, scFv-hIgG1 Fc; not shown: human IgG1 Fc) scFv: EVQLVESGGGLVQPGGSLRLSCAASGFTYSSYGMSWVRQAPGKGLEWVSSISGGGSYTKYPDSVKGRFTISRDNSKNTLYLQMNSLRAEDTAVYYCARDYAGFFDVWGQGTLVTVSSGGGGSGGGGSGGGGSDIQMTQSPSSLSASVGDRVTITCRSSQSLVHSNGNTYLHWYQQKPGKAPKLLIYKVSNRFSGVPSRFSGSGSGTDFTLTISSLQPEDFATYFCSQSTHVPYTFGQGTKVEIK ... 82600
Hu2117HK-Mu24 (Fc fusion, scFv-hIgG1 Fc; not shown: human IgG1 Fc) scFv: EVQLVESGGGLVQPGGSLRLSCAASGFTYSSYGMSWVRQAPGKGLEWVASISGGGSYTKYPDSVKGRFTISRDNSKNTLYLQMNSLRAEDTAVYYCARDYAGFFDVWGQGTLVTVSSGGGGSGGGGSGGGGSDIQMTQSPSSLSASVGDRVTITCRSSQSLVHSNINTYLHWYQQKPGKAPKLLIYKVSNRFSGVPSRFSGSGSGTDFTLTISSLQPEDFATYFCSQSTHVPYTFGQGTKVEIK ... 63700
